Listed here: items and their measured percent reduction in TR-FRET probe signal.
system: AEK1 (Tb927.3.2440); test: percent reduction in TR-FRET probe signal relative to DMSO control; higher = stronger displacement of ATP-site probe (binding); conditions: 1 µM; incubation time 1 h

Consider the reported percent reduction in TR-FRET probe signal for these compounds:
• C[C@@H]1CCN(C(=O)CC#N)C[C@@H]1N(C)c1ncnc2[nH]ccc12 = 5.48%
• O=C1c2ccc(Nc3ccc(F)cc3F)cc2CCc2ccc(OC[C@H](O)CO)cc21 [Skepinone-L] = -1.27%
• CCn1c(=O)c(-c2ccc(-c3cncs3)cc2Cl)cc2cnc(Nc3ccc(N4CCN(C)CC4)cc3)nc21 = 43.6%
• Cc1nc(Nc2cnn(C3CCNCC3)c2)nc2c1N(C)C(=O)c1cc3ccccc3cc1N2C = -10.5%

// next item, percent reduction in TR-FRET probe signal requested
Task: May I ask what percent reduction in TR-FRET probe signal has been recorded for O=C(NOCC(O)CO)c1cc(Br)c(F)c(F)c1Nc1ccc(I)cc1F (stereo not given) ?
Result: -4.38%

----------
tested on: AEK1 (Tb927.3.2440); test: percent reduction in TR-FRET probe signal relative to DMSO control; higher = stronger displacement of ATP-site probe (binding); details: 1 µM; incubation time 1 h
Listed here: items and their measured percent reduction in TR-FRET probe signal.
Write the number in % without appending the unit.

Consider the reported percent reduction in TR-FRET probe signal for these compounds:
* CNc1nc(Nc2cnn([C@H]3CCN(C4COC4)C[C@@H]3F)c2Cl)ncc1C(F)(F)F | 9.94
* Cc1ccccc1CN1C2=NCCN2C(=O)C2=C1CCN(Cc1ccccc1)C2 [TIC10 Analogue] | -7.4
* COc1cc2nccc(Oc3ccc(NC(=O)Nc4ccc(F)cc4F)c(F)c3)c2cc1OC | 10.2
* CCCCCCCCc1ccc(CCC(N)(CO)CO)cc1.Cl [Fingolimod (FTY720) HCl] | -8.59

Task: May I ask what percent reduction in TR-FRET probe signal has been recorded for `NC1(Cc2ccc(Cl)cc2)CCN(c2ncnc3[nH]ccc23)CC1` ?
Result: 2.05

----------
system: AEK1 (Tb927.3.2440); assay: percent reduction in TR-FRET probe signal relative to DMSO control; higher = stronger displacement of ATP-site probe (binding); conditions: 1 µM; incubation time 1 h
result.type: percent reduction in TR-FRET probe signal (%)
Write the number in % without appending the unit.

Consider the reported percent reduction in TR-FRET probe signal for these compounds:
• C[C@H](Nc1ncnc2[nH]cnc12)c1cc2ccc(F)cc2nc1-c1ccccn1 = -3.52
• Oc1ccc(Nc2nc(-c3ccc(Cl)cc3)cs2)cc1 = -4.54
• CS(=O)(=O)CCNCc1ccc(-c2ccc3ncnc(Nc4ccc(OCc5cccc(F)c5)c(Cl)c4)c3c2)o1 = 6.42
• Cc1cc(CS(=O)(=O)c2ccccc2)cc(OCc2ccc(CN3CCC[C@@H]3CO)cc2)c1 = -6.92

Task: May I ask what percent reduction in TR-FRET probe signal has been recorded for `COc1cc(CCc2cc(NC(=O)c3ccc(N4C[C@@H](C)N[C@@H](C)C4)cc3)n[nH]2)cc(OC)c1` ?
Result: 2.07

Task: Cool, now `Oc1ccc(-c2nc(-c3ccc(F)cc3)c(-c3ccncc3)[nH]2)cc1`
Result: -5.77

Task: Cool, now `CC[C@@H]1C(=O)N(C)c2cnc(Nc3ccc(C(=O)N[C@H]4CC[C@H](N5CCN(CC6CC6)CC5)CC4)cc3OC)nc2N1C(C)C`
Result: 4.92

Task: Cool, now `Cn1cc(-c2ccc3ncc(Cc4ccc5ncccc5c4)n3n2)cn1`
Result: 4.34

Source listed as the supplement of paper PMC10720658.
